tested on: HCV replicon cells Huh 9B; assay: HCV replicon assay (luciferase readout); type: cell-based
pIC50: −log10 of the molar value.
Measure Name: pIC50

The examples below pair each entry with its known result.
Compound	pIC50
CC(=O)Nc1cccc(NC(=O)c2ccc(-c3cc(C(=O)Nc4ccc(N5CCOCC5)cc4)ccc3C)cc2)c1 [Example 61]	5.30 to 6.00
Cc1ccc(CNC(=O)c2ccc(-c3cc(C(=O)Nc4ccc(N5CCOCC5)cc4)ccc3C)cc2)o1	5.30 to 6.00
Cc1ccc(C(=O)Nc2ccc(N3CCOCC3)cc2)cc1-c1ccc(C(=O)NCc2cccc(Cl)c2)cc1	5.30 to 6.00

Ask: Look at this compound and give its reported pIC50. `Cc1ccc(C(=O)Nc2ccc(N3CCOCC3)cc2)cc1-c1ccc(C(=O)Nc2cccc(NS(C)(=O)=O)c2)cc1`
Reply: 5.30 to 6.00

Ask: Look at this compound and give its reported pIC50. `COc1ccc(C(=O)Nc2ccc(N3CCOCC3)cc2)cc1-c1ccc(C(=O)Nc2ccc(CN3CCN(S(=O)(=O)C(C)C)CC3)cc2)cc1`
Reply: > 6.00

Ask: Look at this compound and give its reported pIC50. `CCCCS(=O)(=O)N1CCN(Cc2ccc(NC(=O)c3ccc(-c4cc(C(=O)Nc5ccc(N6CCOCC6)cc5)ccc4Cl)cc3)cc2)CC1`
Reply: > 6.00

Ask: Look at this compound and give its reported pIC50. `Cc1ccc(C(=O)Nc2ccc(N3CCOCC3)cc2)cc1-c1ccc(C(=O)Nc2cccc(Br)c2)cc1`
Reply: 5.30 to 6.00

Attribution: patent US8008303B2
